- System: Mus musculus
- assay_info: Phototoxic effect in UV light irradiated mouse assessed as ear thickness at 140 mg/kg, after 4 hrs relative to control
- Assay type: ADME, organism-based
- Set-up: dose 140 mg/kg
- run_conditions: in vivo
endpoint_label: Activity (mm)
Give bare numbers, in mm.

molecule: CC1COc2c(N3CCN(C(c4ccccc4)c4ccc(Cl)cc4)CC3)c(F)c([N+](=O)[O-])c3c(=O)c(C(=O)O)cn1c23 (stereo unspecified)
test_system: Mus musculus
scale_unit: mm
Activity: 0.28
--
molecule: CC1COc2c(N3CCN(C)CC3)c(F)cc3c(=O)c(C(=O)O)cn1c23.Cl (stereo unspecified)
test_system: Mus musculus
scale_unit: mm
Activity: 0.32

# batch: return Activity for each of the 4 molecules below
1. CC1COc2c(N3CCN(C(=O)c4ccco4)CC3)c(F)cc3c(=O)c(C(=O)O)cn1c23 (stereo unspecified)
2. CC1COc2c(N3CCC4(CC3)OCCO4)c(F)cc3c(=O)c(C(=O)O)cn1c23 (stereo unspecified)
3. CC1COc2c(N3CCSCC3)c(F)c([N+](=O)[O-])c3c(=O)c(C(=O)O)cn1c23 (stereo unspecified)
4. CCn1cc(C(=O)O)c(=O)c2cc(F)c(N3CCNC(C)C3)c(F)c21 (stereo unspecified) [LOMEFLOXACIN]

1. 0.3
2. 0.37
3. 0.28
4. 0.4
